# assaySystem: ERBIN PDZ-GST fusion protein (aa. 1217-1371 of SEQ ID NO:201) (human, UniProt P08515 1-218 = GST)
# Sequence (P08515 whole entry, the tested form may be a part): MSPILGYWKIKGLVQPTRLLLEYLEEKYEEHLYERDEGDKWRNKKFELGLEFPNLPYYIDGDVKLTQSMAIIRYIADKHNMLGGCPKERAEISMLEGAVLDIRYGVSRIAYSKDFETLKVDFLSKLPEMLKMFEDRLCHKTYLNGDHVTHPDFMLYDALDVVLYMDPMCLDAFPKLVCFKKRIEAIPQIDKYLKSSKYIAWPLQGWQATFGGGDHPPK
# testSummary: competition ELISA: ERBIN PDZ-GST binding to immobilized biotin-WETWV
Where no end group is shown, it is not given here.
Reported values of IC50 for individual entries
measurementType: IC50

1) Ac-WETFV [Ac-WETFV]    14.5 µM
2) Ac-WETAV [Ac-WETAV]    34 µM
3) Ac-WETYV [Ac-WETYV]    42.5 µM
